Values from the supplement of paper PMC12764529

# ASSAY NOTES: folding stability dG unfold (combined trypsin and chymotrypsin); higher = more stable
MEASUREMENT LABEL: folding stability dG unfold (kcal/mol)
Answers are plain numbers, in kcal/mol.

Worked examples, 6 sequences total:
- SEQUENCE CODE: "SAGGSAGGSAGGSLVSTSPLPSSSTLVTEKGPSPEVTVTVVTVKPGGSRSVTTLPVSESSAGGSAGGSAGGS [r10_140_JUSTAS]"
  folding stability dG unfold [kcal/mol]: -0.143
- SEQUENCE CODE: "SMKITEIEPDGDGTLEIEIPVEAPPGMDPDEVQIYVMSDDGIRHVRITPNGTVEITIENIPDIRIYIFVHSA [r9_722_TrROS]"
  folding stability dG unfold [kcal/mol]: 2.26
- SEQUENCE CODE: "SAGGPEVFVFRDPLTGTWSLAVYDPSTGLWTVTYPDGTVALYRRSGDSWELVEARPVPPAPVDPDLASAGGS [r16_687_TrMRF]"
  folding stability dG unfold [kcal/mol]: 3.54
- SEQUENCE CODE: "SAGVEPTPDGKWRIEINPEEGHIRVRMKNGEPHEIPFPEGSLDDFADEIAEKMGFPPDKPFKIDEIEIWSAG [r5_923_TrROS]"
  folding stability dG unfold [kcal/mol]: -0.273
- SEQUENCE CODE: "SAPSPKTPETLVFLSEEESEVVEERLSPSGKPFLVKRKRRFLRYRYVDEDGNVTSVGEREEPVEEELVLSAG [r14_934_JUSTAS]"
  folding stability dG unfold [kcal/mol]: 0.672
- SEQUENCE CODE: "SAGGSAGGSAGAPPGSTVTVTYTVTTTVTDRVPDGPGFTNPHTLTSTVTTTVNVGHPDLVSAGGSAGGSAGG [r11_734_TrMRF]"
  folding stability dG unfold [kcal/mol]: 0.585

Okay, now this sequence:
What measured folding stability dG unfold goes with SAARKIAKKLKEAFPNFPIKDIEITEYEPNPNGRPYMNISIQFPNGGKMEIQFDDPEHPEIREAIREIMSAG [r14_143_TrROS] ?
1.49

###

# ASSAY NOTES: folding stability dG unfold (combined trypsin and chymotrypsin); higher = more stable
MEASUREMENT LABEL: folding stability dG unfold (kcal/mol)
One number for each entry, in kcal/mol.

- SEQUENCE CODE: "SAGSMPPSTTTSEEVTVGGKKVKRTTTVYRAPNGTPSVTSTYTLGETPGVEDPLSGKALTPEERAAAAASAG [r5_138_JUSTAS]"
  MEASUREMENT LABEL: "folding stability dG unfold"
  RESULT VALUE: 0.668
- SEQUENCE CODE: "SAGSLEKVTESSTSSDKVEVTTTTLTPLSNPSVPVQYVKTTTTTTLIDPATGKTLSTTTTTTTTPLPAASAG [r5_300_JUSTAS]"
  MEASUREMENT LABEL: "folding stability dG unfold"
  RESULT VALUE: 0.053

Look at this sequence and give its reported folding stability dG unfold. SAGGSAGGSAGGEEEYVTLTIKVYDPKTREPVKEITIVLPKKNMTPEQLRELLKELGIEVSAGGSAGGSAGG [r7_903_TrROS_Hall]
2.98

###

# ASSAY NOTES: folding stability dG unfold from chymotrypsin proteolysis; higher = more stable
Each entry falls in a class defined on folding stability dG unfold; the bands are low value (below 0.6 kcal/mol), medium value (0.6 kcal/mol to below 3 kcal/mol), high value (3 kcal/mol or more)

Known results for sequences:
- SEQUENCE CODE: "SAGGSAGGSAGGSKTKAELFKVGDKLILATYHPDTGKVEIFYPDNSVETLPAEEAEKLFSAGGSAGGSAGGS [r10_1140_TrMRF]"
  QUALITATIVE LABEL: "medium value"
- SEQUENCE CODE: "KPKIKITITFNKETGKITITAVNKDNNVVVKTEFELKDGKLTMKIEVKNKKTNKTYTIEIEIKLLKPGEKLS [r1_404_TrROS_Hall]"
  QUALITATIVE LABEL: "high value"
- SEQUENCE CODE: "SAGGSAGGSEYRIELELFRTPEGGLVVPVRIYPPDGGRFEGPASLEELVERFGFSFPPLLELLSAGGSAGGS [r20_235_TrMRF]"
  QUALITATIVE LABEL: "medium value"
- SEQUENCE CODE: "SAGGEKIKEALEKVPGLEIVKVEKKDGKVYIHIKAKSEEQRKKAAEALKKLPGIKEVKIEVIPEEELSAGGS [r16_671_TrROS_Hall]"
  QUALITATIVE LABEL: "medium value"

Given SAGGSAGSHNQSPDGITLDAPLSSEEEIEALVAEVKAAAPPTYTVTVERTRSPSTLSVDVIVTAAPSAGGSA [r15_80_JUSTAS] , name the class its folding stability dG unfold places it in.
low value

Place this sequence in its band: SAGGSAGGSAGSTTTTITDPANGEAYEVTSDPNGGATITNPNSSQVYYKNADTITSVGASSAGGSAGGSAGG [r17_476_JUSTAS]
low value
